- Test system: MDR1-MDCK cell monolayers
- protocol.notes: MDCK-MDR1 permeability assay (BBB penetration potential)
- Type: in vitro ADME
- condition.context: 5 μM, 120 minutes, pH 7.4
result.type: MDCK-MDR1: % Recov B-A

The cases that follow already have their MDCK-MDR1: % Recov B-A on record.
compound: COc1cc(-c2ccc(-c3nnc(N(C)[C@@H]4C[C@H]5CC[C@H](N5)[C@@H]4F)s3)c(O)c2)ccn1 (single isomer, unassigned) [Compound E-11A]
result.type: MDCK-MDR1: % Recov B-A
measured: 56%

compound: COc1cc(-c2ccc(-c3nnc(N(C)[C@@H]4C[C@H]5CC[C@H](N5)[C@@H]4F)s3)c(O)c2)ncn1 (single isomer, unassigned)
result.type: MDCK-MDR1: % Recov B-A
measured: 61%

compound: CN(c1nnc(-c2cc(F)c(-c3cnn(C)c3)cc2O)s1)[C@@H]1C[C@H]2CC[C@H](N2)[C@@H]1F (single isomer, unassigned)
result.type: MDCK-MDR1: % Recov B-A
measured: 67%

Attention now shifts to the item below.
Data request: Let me know recorded MDCK-MDR1: % Recov B-A for COc1cc(-c2ccc(-c3nnc(N(C)[C@H]4C[C@@H]5CC[C@@H](N5)[C@H]4F)s3)c(O)c2)ccn1 (single isomer, unassigned) [Compound E-11B] , thanks.
Data returned: 60%
